tested on: SNB-19 CNS; experiment: NCI tumour cell line growth inhibition, 48 h

>  <Compound>
COc1ccccc1-c1cc(=O)c2cc3c(cc2[nH]1)OCO3

>  <TGI>
> 100 µM

$$$$
>  <Compound>
COC(O)C(=O)c1ccc2c(c1)CC1(C2)Cc2cc3c(cc2C1=O)CCC3 (stereo unspecified)

>  <TGI>
34.5 µM

$$$$
>  <Compound>
c1ccc(CN2COc3c(ccc4c3OCN(Cc3ccccc3)C4)C2)cc1

>  <TGI>
> 100 µM

$$$$
>  <Compound>
O=c1[nH]c(=S)[nH]c2c1CN(CCCN1CCOCC1)CN2

>  <TGI>
> 100 µM

$$$$
>  <Compound>
CC(C)NC(=O)OCc1c(CO)c2c(n1C)-c1ccccc1CC2

>  <TGI>
> 100 µM

$$$$
>  <Compound>
O=C(Nc1ccc(-n2ccc3c(NC(=O)c4ccccc4)ncnc32)cc1)Nc1ccc(Cl)c(Cl)c1

>  <TGI>
12.6 µM

$$$$
>  <Compound>
N=c1ccn(O)cc1/C=C1/C(=O)Nc2ccccc21

>  <TGI>
> 100 µM

$$$$
>  <Compound>
CCOC(=O)C(Cc1ccc(OC(=O)c2ccc(OC)cc2)cc1)NC(=O)C(F)(F)F (stereo unspecified)

>  <TGI>
> 100 µM

$$$$
>  <Compound>
S=C1CCSc2c(ccc3ccccc23)N1

>  <TGI>
> 100 µM

$$$$
>  <Compound>
CN(C)CCn1c(=O)c2ccc(NCCN3CCNCC3)c3c(=O)c4ccccc4n(c1=O)c23

>  <TGI>
23.9 µM

$$$$
>  <Compound>
CC(=O)OC(C)(C)/C(C)=C/C(=O)O[C@H]1C(=O)O[C@@H]2C[C@H]3[C@H](C)C(=O)C(O[C@@H]4O[C@H](CO)[C@@H](O)[C@H](O)[C@H]4O)=C[C@]3(C)[C@H]3[C@@H](O)[C@H](O)[C@@]4(C(=O)O)OC[C@]32[C@@H]14

>  <TGI>
> 100 µM

$$$$

---

test system: PC-3 prostate; assay: NCI tumour cell line growth inhibition, 48 h; in the data active = GI50 below about 0.43 µM; inactive = the rest
Outcome codes: active, inactive

>  <Compound>
Fc1ccc2c(c1)c(-c1nc(-c3c[nH]c4ncccc34)cs1)cn2CCCCN1CCCCC1

>  <Label Value>
inactive

$$$$
>  <Compound>
Clc1ccc(-c2c3c(nn2-c2ccccn2)CCc2ccccc2-3)cc1Cl

>  <Label Value>
inactive

$$$$
>  <Compound>
O=C(Cc1ccc(F)c(F)c1)Nc1cc(C2(C(F)(F)F)CC2)nn1Cc1ccccc1

>  <Label Value>
inactive

$$$$
>  <Compound>
O=c1cc(-c2cccc3c2Sc2ccccc2S3)oc(N2CCOCC2)c1

>  <Label Value>
inactive

$$$$
>  <Compound>
O=C(COc1cc(O)c2c(=O)cc(-c3ccccc3)oc2c1)Nc1ccccc1C(F)(F)F

>  <Label Value>
inactive

$$$$
>  <Compound>
O=C(O)C1(C(=O)O)CCC1.[NH2-].[NH2-].[Pt+2]

>  <Label Value>
inactive

$$$$
>  <Compound>
C=C1CCC2C3(C)COC(c4ccccc4)OC3CCC2(C)C1/C=C/C1=CCOC1=O (stereo not given)

>  <Label Value>
inactive

$$$$
>  <Compound>
CCN(CC)CC(O)CNc1c2ccc([N+](=O)[O-])cc2nc2cc(OC)c(OC)cc12 (stereo not given)

>  <Label Value>
active

$$$$
>  <Compound>
O=C(Nc1ccncc1)C(=O)c1cn(S(=O)(=O)c2ccc(Cl)cc2)c2ccccc12

>  <Label Value>
inactive

$$$$
>  <Compound>
c1ccc(CN2COc3c(ccc4c3OCN(Cc3ccccc3)C4)C2)cc1

>  <Label Value>
inactive

$$$$
>  <Compound>
CC(=O)c1c(C)[nH]c(-c2nc3ccc(N4CCN(C)CC4)cc3[nH]2)c1-c1ccc(N(C)C)cc1

>  <Label Value>
inactive

$$$$
>  <Compound>
COc1cc(C2SCC(=O)N2c2ncc(C)s2)cc(OC)c1OC (stereo not given)

>  <Label Value>
inactive

$$$$
>  <Compound>
CC(C)=CCC/C(C)=C/CC/C(C)=C/CSc1ccccc1C(=O)O

>  <Label Value>
inactive

$$$$
>  <Compound>
O=C(c1ccccc1)C1OC1c1ccc([N+](=O)[O-])cc1 (stereo not given)

>  <Label Value>
inactive

$$$$
>  <Compound>
CC(C)=CCC[C@](C)(O)[C@H]1CC[C@]2(C)[C@@H]1CC[C@@H]1[C@@]3(C)CC/C(=N/O)C(C)(C)[C@@H]3CC[C@]12C

>  <Label Value>
inactive

$$$$

---

Documented TGI across a set of compounds
tested on: MDA-N; test: NCI tumour cell line growth inhibition, 48 h

>  <Compound>
COc1cc(/C=N/n2c(-c3ccccc3)nn(C(C)=O)c2=O)cc(OC)c1OC

>  <TGI>
3.83 µM

$$$$
>  <Compound>
COC(=O)C(Cc1c[nH]c2ccccc12)NC(=O)c1ccc(-c2ccc(Cl)cc2Cl)o1 (stereo not drawn)

>  <TGI>
> 100 µM

$$$$
>  <Compound>
Cn1cnc([N+](=O)[O-])c1Sc1nc(N)nc2c1ncn2C1CC(O)C(CO)O1 (stereo not drawn)

>  <TGI>
> 100 µM

$$$$
>  <Compound>
CCOC(=O)C1=NN(c2ccc([N+](=O)[O-])cc2)[C@@]2(C)C[C@]3(c4ccccc4)N(c4ccc([N+](=O)[O-])cc4)N=C(C(=O)OCC)N3c3ccccc3N12

>  <TGI>
> 100 µM

$$$$
>  <Compound>
COC(=O)c1cc(C(=CCC[C@H]2CC[C@@]3(C)C(CCC4C3CC[C@@]3(C)C4CC[C@@H]3C(C)CCCC(C)C)C2)c2cc(Cl)c(O)c(C(=O)OC)c2)cc(Cl)c1O (stereo partly drawn)

>  <TGI>
> 10 µM

$$$$
>  <Compound>
N#CC(Cc1ccccc1)N(CCC1=CCCCC1)Cc1ccccc1 (stereo not drawn)

>  <TGI>
> 100 µM

$$$$
>  <Compound>
CN(/N=C/c1cccc2cccnc12)c1ccc(Cl)cc1[N+](=O)[O-]

>  <TGI>
> 100 µM

$$$$
>  <Compound>
CCC(=O)Nc1ccc(NC(C#N)c2cccc(Oc3ccccc3)c2)cc1 (stereo not drawn)

>  <TGI>
> 100 µM

$$$$
>  <Compound>
NC(=O)Cc1nc2c(N)ncnc2n1C1OC(CO)C(O)C1O (stereo not drawn)

>  <TGI>
> 100 µM

$$$$
>  <Compound>
CC1=C(c2ccccc2)NC(=S)C(C)C(c2ccccc2)=N1 (stereo not drawn)

>  <TGI>
46.8 µM

$$$$
>  <Compound>
CC(=O)OCC1OC(n2c(-c3ccccc3)c(C(C)=O)c(-c3cccc4ccccc34)c(C#N)c2=S)C(OC(C)=O)C(OC(C)=O)C1OC(C)=O (stereo not drawn)

>  <TGI>
> 100 µM

$$$$
>  <Compound>
C=CCN(C(=O)OC(C)(C)C)[C@H](C)C(=O)N[C@@H](C)C(=O)OC

>  <TGI>
> 100 µM

$$$$
>  <Compound>
S=C1CCSc2c(ccc3ccccc23)N1

>  <TGI>
> 100 µM

$$$$
>  <Compound>
CN(C)C(c1ccccc1)C1COC2Cc3ccccc3C1O2 (stereo not drawn)

>  <TGI>
> 100 µM

$$$$
>  <Compound>
CC(=O)Nc1c(C)cc2c(nc3n2CCC3OC(C)=O)c1[N+](=O)[O-] (stereo not drawn)

>  <TGI>
> 100 µM

$$$$
>  <Compound>
O=C1C(=O)N(c2cccc(C(F)(F)F)c2)C(=S)N1c1ccccc1

>  <TGI>
71.9 µM

$$$$
>  <Compound>
O=C(Nc1ccc2[nH]c(C(=O)N3CC(CCl)c4c3cc([N+](=O)[O-])c3ccccc43)cc2c1)Nc1ccc2[nH]c(C(=O)N3CC(CCl)c4c3cc([N+](=O)[O-])c3ccccc43)cc2c1 (stereo not drawn)

>  <TGI>
> 100 µM

$$$$
>  <Compound>
Cc1ccc(S(=O)(=O)Oc2nc3ccccc3nc2OS(=O)(=O)c2ccc(C)cc2)cc1

>  <TGI>
> 100 µM

$$$$

---

test system: HT29 colon; experiment: NCI tumour cell line growth inhibition, 48 h

>  <Compound>
COC1C(O)C(n2ncc3c(SC)nc(SC)nc32)OC1C(O)CO (stereo not given)

>  <TGI>
> 100 µM

$$$$
>  <Compound>
COc1ccc(/C=C2\CCS(=O)(=O)c3ccccc3C2=O)cc1

>  <TGI>
35.9 µM

$$$$
>  <Compound>
O=C1C(=O)N(c2cccc(C(F)(F)F)c2)C(=S)N1c1ccccc1

>  <TGI>
> 100 µM

$$$$
>  <Compound>
CC(=O)Nc1c(C)cc2c(nc3n2CCC3OC(C)=O)c1[N+](=O)[O-] (stereo not given)

>  <TGI>
> 100 µM

$$$$
>  <Compound>
[N-]=[N+]=NCCCCCC(=O)OC(C(=O)c1ccccc1)c1cccc(OCC(=O)NCCOCCOCCNC(=O)CCCC[C@@H]2SC[C@@H]3NC(=O)N[C@@H]32)c1 (stereo not given in full)

>  <TGI>
> 100 µM

$$$$
>  <Compound>
COC(=O)C(C(=O)OC)C1CCCC(=O)C1 (stereo not given)

>  <TGI>
> 100 µM

$$$$
>  <Compound>
C[C@]12CC/C(=N\O)C=C1CC[C@@H]1C2CC[C@@]2(C)C1CC[C@@H]2OC1CCCCO1 (stereo not given in full)

>  <TGI>
28.8 µM

$$$$
>  <Compound>
CC(=O)OC[C@@H](COC(=O)/C=C/c1ccc(O)cc1)OC1OC(CO)C(O)C(O)C1O (stereo not given in full)

>  <TGI>
> 100 µM

$$$$
>  <Compound>
COC(=O)c1cccn1C(=O)n1cccc1

>  <TGI>
> 100 µM

$$$$
>  <Compound>
C#Cc1c(/C=C/C(=O)OCC)ccc2ccccc12

>  <TGI>
26 µM

$$$$
